B1: Cytochrome c-551, P00099 (parent)
chain: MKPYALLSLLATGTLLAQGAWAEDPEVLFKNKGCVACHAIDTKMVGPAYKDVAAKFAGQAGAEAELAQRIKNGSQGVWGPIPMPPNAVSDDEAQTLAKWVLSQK

- Variants of: B1
- CONDITION: Pseudomonas aeruginosa (strain ATCC 15692 / DSM 22644 / CIP 104116 / JCM 14847 / LMG 12228 / 1C / PRS 101 / PAO1); pH 5; 25 °C; GdnHCl; CD; Sodium acetate 20 mM; structure 451C; whole UniProt chain shown
Classification field: condition met = ddG of mutation (higher = less stable) at or over -2 kcal/mol; condition not met = ddG of mutation (higher = less stable) under -2 kcal/mol.

See these solved cases before continuing.
F29A V35M F56Y E65Y V100I: condition not met
F56Y E65Y V100I: condition not met
F56Y: condition met
V100I: condition met
F29A V35M: condition met
F29A V35M F56Y E65Y: condition not met
F29A V35M V100I: condition not met
F56Y E65Y: condition not met

Attention now shifts to the item below.
**Query** Check if ddG of mutation (higher = less stable) >= -2 kcal/mol (inclusive). Item: E65Y
**Result** condition met

Source listed as FireProtDB (doi:10.1016/j.bpc.2008.09.020).
